These measurements were taken from patent US20150056209A1.

Target or system: LRO4
Test method notes: phage ELISA, coated LRO4
Bridges are numbered along the chain shown (N, C = ends). Where no end group is shown, it is not given here.
Grouping by measured OD (binding of phages to LR04) is done with the following cut points: low group = under 0.8 OD, middle group = from 0.8 OD up to 1 OD, high group = 1 OD and over

Binder: QSYTNDDVLRISGGGS (peptide, not shown: large carriers) [phage clone M19]
Classification: high group

Binder: ACNNWKMPLCGGGS (peptide, not shown: large carriers, disulfide 2-10; also: C-terminus fused to phage pIII) [phage clone Cb4]
Classification: low group

Binder: QNMNNWTLASIMGGGS (peptide, not shown: large carriers) [phage clone A31]
Classification: middle group

Binder: HRLTNSEQAALPGGGS (peptide, not shown: large carriers) [phage clones M3, M5]
Classification: high group

Binder: ACNNSXMPLCGGGS (peptide, not shown: large carriers, disulfide 2-10; not fully specified; X: residue not identified in the source) [phage clone Ca6]
Classification: low group

Binder: ACNNSHMPLCGGGS (peptide, not shown: large carriers, disulfide 2-10; not fully specified) [phage clones Ca9, Cb3, Ca8, Ca10]
Classification: middle group

Binder: HSLTNTQMTQLSGGGS (peptide, not shown: large carriers) [phage clone M31]
Classification: high group

Binder: ADPFSPTNRIPLGGGS (peptide, not shown: large carriers) [phage clone M7]
Classification: high group

Binder: HRISNYAMELHSGGGS (peptide, not shown: large carriers) [phage clone G4]
Classification: high group

Binder: ACQNSHMPLCGGGS (peptide, not shown: large carriers, disulfide 2-10; also: C-terminus fused to phage pIII) [phage clone Ca3]
Classification: low group

Binder: EVMNNWTLASIMGGGS (peptide, not shown: large carriers) [phage clone M30]
Classification: high group

Binder: HRMTNNAMDVFMGGGS (peptide, not shown: large carriers) [phage clones M6, G10]
Classification: high group
